Overview of recorded Dmax for various compounds
target: Androgen Receptor (Homo sapiens, UniProt P10275, T878A); construct: the AR gene was modified, using CRISPR/Cas9 editing, so the expressed AR protein included an 11 amino acid HiBiT tag; endogenous in cells; host or cells: clonal LnCaP-derived line, AR gene edited by CRISPR/Cas9; assay: Androgen Receptor Degradation Assay (Nano-Glo HiBiT); format: cell-based; conditions: LNCaP, 18 h, HiBiT-tagged AR in human LnCaP cells, read-out: mean asymptote max
Sequence (P10275 whole entry T878A): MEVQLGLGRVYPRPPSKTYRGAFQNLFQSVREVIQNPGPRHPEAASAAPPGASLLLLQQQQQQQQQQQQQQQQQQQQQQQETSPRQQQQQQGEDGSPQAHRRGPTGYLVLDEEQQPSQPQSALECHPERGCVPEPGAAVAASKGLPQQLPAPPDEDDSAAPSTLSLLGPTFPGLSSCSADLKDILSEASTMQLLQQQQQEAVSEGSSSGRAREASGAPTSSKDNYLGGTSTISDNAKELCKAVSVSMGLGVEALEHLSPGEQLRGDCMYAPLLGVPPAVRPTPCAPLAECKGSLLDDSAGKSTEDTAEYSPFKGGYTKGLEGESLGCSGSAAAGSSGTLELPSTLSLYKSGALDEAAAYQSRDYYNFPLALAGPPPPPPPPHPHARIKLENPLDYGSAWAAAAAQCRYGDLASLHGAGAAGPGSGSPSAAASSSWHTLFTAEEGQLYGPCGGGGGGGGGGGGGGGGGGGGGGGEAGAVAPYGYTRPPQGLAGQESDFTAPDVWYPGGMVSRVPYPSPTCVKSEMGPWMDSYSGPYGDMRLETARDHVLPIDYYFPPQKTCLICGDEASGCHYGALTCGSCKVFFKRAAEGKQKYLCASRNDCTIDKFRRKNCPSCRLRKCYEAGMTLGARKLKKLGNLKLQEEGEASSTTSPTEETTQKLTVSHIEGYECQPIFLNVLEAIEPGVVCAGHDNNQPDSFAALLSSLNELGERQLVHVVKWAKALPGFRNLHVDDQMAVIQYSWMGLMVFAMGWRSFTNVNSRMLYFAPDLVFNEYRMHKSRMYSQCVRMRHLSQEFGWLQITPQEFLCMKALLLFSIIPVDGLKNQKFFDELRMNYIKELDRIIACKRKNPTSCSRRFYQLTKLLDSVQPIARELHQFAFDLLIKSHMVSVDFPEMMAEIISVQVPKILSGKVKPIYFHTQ
Sequence (Q96SW2 whole entry partner): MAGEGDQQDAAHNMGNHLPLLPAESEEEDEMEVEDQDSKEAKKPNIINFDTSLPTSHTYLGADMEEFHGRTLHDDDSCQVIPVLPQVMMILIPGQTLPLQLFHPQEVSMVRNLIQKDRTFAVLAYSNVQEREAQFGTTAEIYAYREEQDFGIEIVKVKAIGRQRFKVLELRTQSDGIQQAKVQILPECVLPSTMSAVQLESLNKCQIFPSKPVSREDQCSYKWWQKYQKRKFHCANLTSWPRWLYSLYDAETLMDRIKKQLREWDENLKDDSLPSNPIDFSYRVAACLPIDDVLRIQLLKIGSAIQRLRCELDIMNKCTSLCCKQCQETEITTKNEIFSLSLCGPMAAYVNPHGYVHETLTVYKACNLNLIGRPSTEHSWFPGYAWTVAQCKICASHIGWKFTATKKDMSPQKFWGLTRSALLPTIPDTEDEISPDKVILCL
Sequence (Q16531 whole entry partner): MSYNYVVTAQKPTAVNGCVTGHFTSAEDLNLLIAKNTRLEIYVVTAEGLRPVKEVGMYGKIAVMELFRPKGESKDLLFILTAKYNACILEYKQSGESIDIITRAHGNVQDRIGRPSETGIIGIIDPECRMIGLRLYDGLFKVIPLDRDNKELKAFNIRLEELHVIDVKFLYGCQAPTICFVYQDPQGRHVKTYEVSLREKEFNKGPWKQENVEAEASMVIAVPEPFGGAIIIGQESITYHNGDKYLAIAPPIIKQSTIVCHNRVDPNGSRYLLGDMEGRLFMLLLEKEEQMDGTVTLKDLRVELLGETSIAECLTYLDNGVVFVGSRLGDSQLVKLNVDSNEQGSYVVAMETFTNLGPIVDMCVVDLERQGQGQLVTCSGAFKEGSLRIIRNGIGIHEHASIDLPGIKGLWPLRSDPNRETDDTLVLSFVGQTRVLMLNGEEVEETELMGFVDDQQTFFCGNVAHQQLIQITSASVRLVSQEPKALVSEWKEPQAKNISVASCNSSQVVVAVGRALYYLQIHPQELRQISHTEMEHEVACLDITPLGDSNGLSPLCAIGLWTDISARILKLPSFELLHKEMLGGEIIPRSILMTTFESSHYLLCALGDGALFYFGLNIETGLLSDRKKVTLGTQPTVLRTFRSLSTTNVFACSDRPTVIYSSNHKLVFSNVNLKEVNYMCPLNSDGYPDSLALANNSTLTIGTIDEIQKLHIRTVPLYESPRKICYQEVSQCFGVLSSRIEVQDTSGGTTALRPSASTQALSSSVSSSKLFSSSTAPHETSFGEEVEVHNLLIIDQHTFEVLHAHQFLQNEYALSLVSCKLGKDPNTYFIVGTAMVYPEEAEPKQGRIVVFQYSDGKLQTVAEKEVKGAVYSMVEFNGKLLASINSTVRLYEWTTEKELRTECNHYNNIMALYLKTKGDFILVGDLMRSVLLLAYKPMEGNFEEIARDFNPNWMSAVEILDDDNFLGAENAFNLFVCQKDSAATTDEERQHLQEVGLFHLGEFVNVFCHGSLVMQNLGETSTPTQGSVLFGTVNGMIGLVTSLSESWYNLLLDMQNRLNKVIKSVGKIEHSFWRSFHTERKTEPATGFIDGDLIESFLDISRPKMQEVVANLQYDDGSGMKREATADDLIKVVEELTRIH
Counter-ions that a name gives are not always drawn.

Here's what some known entries look like.
- Compound: "N#Cc1ccc(O[C@H]2CC[C@H](NC(=O)c3ccc(N4CCC(CN5CCC(F)(Cn6ccc7c(N8CCC(=O)NC8=O)cccc76)CC5)CC4)nn3)CC2)cc1Cl"
  Dmax: "≥ 50%"
- Compound: "CC1(C)[C@H](NC(=O)c2ccc(N3CCC(CN4CCC(n5ncc6c(N7CCC(=O)NC7=O)ccnc65)CC4)CC3)cn2)C(C)(C)[C@H]1Oc1ccc(C#N)c2ncccc12 [EAR260, hydrochloride]"
  Dmax: "≥ 50%"

Input line: Can you look up the measured Dmax of N#Cc1ccc(O[C@H]2CC[C@H](NC(=O)c3ccc(N4CCC(CN5CCC(n6ncc7c(N8CCC(=O)NC8=O)cc(F)cc76)CC5)CC4)nn3)CC2)cc1Cl for me?
Output line: ≥ 50%
